Recorded AC50 for the following molecules
EXPERIMENTAL_TARGET: UniProt:P07900
Type: functional, organism-based
Active and inactive are the calls of the source.
MEASURE: AC50

1) CCCCCCCCCCCCCCCC[n+]1ccccc1 : 2.73 µM (active)
2) O=C/C(=N\Nc1cccc(C(F)(F)F)c1)C(=O)c1ccccc1 : 6.15 µM (active)
3) C(=NN=C1c2ccccc2-c2ccccc21)c1c[nH]c2ccccc12 : 5.17 µM (active)
4) O=C(Nc1nc(-c2ccccc2)c(-c2ccccc2)o1)c1ccc(F)cc1 : 7.59 µM (active)
5) CN(C)CC1CC/C(=C\c2ccc(O)cc2)C1=O (stereo not given) : 4.38 µM (active)
6) CCOC(=O)/C(=C/c1ccc(OC(=O)c2ccccc2)cc1)C(C)=O : 2.06 µM (active)
7) CC(Oc1ccc(Cl)cc1)C(=O)NNC(=S)NC(=O)c1ccco1 (stereo not given) : 1.41 µM (active)
8) COc1ccc(NC2CCN(C3CC(=O)N(c4ccc(F)c(Cl)c4)C3=O)CC2)cc1 (stereo not given) : 4.11 µM (active)
9) O=C1/C(=C\c2cccc(O)c2O)SC(=S)N1Cc1ccccc1 : 13.4 µM (active)
10) O=[N+]([O-])c1cc(S(=O)(=O)C(F)(F)F)ccc1Sc1nc2ccccc2s1 : 1.75 µM (active)

----------
EXPERIMENTAL_TARGET: Polyadenylate-binding protein 1 (Homo sapiens)
Sequence (P11940 whole entry): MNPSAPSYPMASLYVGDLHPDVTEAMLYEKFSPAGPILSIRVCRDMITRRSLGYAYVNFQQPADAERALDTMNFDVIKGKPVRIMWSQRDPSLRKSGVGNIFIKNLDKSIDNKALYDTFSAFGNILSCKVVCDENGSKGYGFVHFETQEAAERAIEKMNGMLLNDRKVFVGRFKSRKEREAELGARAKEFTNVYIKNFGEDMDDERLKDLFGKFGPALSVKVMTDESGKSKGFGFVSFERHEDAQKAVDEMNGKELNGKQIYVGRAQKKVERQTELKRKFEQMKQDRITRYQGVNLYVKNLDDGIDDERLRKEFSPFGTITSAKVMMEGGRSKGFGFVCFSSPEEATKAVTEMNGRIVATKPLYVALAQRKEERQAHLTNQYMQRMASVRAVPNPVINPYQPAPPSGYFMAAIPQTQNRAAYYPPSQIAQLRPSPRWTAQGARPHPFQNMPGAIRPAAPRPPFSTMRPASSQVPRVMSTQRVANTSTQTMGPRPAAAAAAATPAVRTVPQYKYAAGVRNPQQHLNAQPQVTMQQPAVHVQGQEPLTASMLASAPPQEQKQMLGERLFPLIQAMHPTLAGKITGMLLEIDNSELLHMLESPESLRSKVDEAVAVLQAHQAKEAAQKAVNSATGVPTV
TEST_SUMMARY: MLLE binding blockers, Cy5 peptide tracer – biochemical, fluorescence polarization, Cy5-PAM2 peptide, secondary, miRNA deadenylation inhibitor project, dose response (AID 602260)
Assay type: functional
RECORDED_CONDITIONS: read-out: IC50_Mean
Activity calls are given as the source filed them.
MEASURE: IC50

1. CC(=O)c1cc(-c2ccccc2)[nH]c1N1CCOCC1 : > 66 µM (inactive)
2. COc1cc(/C=C/C(=O)Nc2nnc(C(C)(C)C)s2)cc(OC)c1OC : > 66 µM (inactive)
3. COc1ccc(C2CC(c3cccs3)=Nc3ccccc3S2)cc1 (stereo unspecified) : > 66 µM (inactive)
4. COc1ccc(Cc2c(C(C)(C)C)nc3c(C)cc(Br)cn23)c(C)c1 : > 66 µM (inactive)
5. CCOC(=O)CCCCC(=O)c1[nH]c(O)nc1CSc1nc(O)c(C#N)c(-c2ccccc2)n1 : > 66 µM (inactive)
6. Sc1nnc2c3ccccc3n(CCc3ccccc3)c2n1 : > 66 µM (inactive)

----------
Recorded EC50 for the following molecules
EXPERIMENTAL_TARGET: Mu-type opioid receptor (Homo sapiens);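 also: U2OS cells expressing OPRM1 and beta-arrestin as split beta-galactosidase partners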
Sequence (P35372 whole entry): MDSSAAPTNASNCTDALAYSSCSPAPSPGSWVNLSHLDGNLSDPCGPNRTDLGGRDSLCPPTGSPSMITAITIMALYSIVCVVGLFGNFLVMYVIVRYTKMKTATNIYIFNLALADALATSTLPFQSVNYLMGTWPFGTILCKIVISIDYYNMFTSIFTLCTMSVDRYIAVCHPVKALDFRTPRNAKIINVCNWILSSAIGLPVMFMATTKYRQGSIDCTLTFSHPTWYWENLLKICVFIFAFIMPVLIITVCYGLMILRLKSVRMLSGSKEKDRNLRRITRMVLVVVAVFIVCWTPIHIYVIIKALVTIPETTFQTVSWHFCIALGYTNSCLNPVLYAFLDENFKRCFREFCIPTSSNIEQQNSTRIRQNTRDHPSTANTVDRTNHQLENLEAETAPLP
TEST_SUMMARY: Counterscreen for agonists of heterodimerization of the mu 1 (OPRM1) and delta 1 (OPRD1) opioid receptors: Luminescence-based cell-based high throughput dose response assay to identify agonists of OPRM1 homodimerization.
Assay type: functional
Active and inactive are the calls of the source.
MEASURE: EC50

1) CN(C)C(CNC(C(=O)Nc1ccc([N+](=O)[O-])cc1Br)c1ccccc1)c1ccccc1 (stereo not given) : > 92.5 µM (inactive)
2) Cc1cccc2cc(C(c3nnnn3Cc3ccccc3)N3CCN(C)CC3)c(O)nc12 (stereo not given) : > 92.5 µM (inactive)
3) CCOC(=O)C1(Cc2ccccc2)CCN(Cc2cccn2-c2cccnc2)CC1 : > 92.5 µM (inactive)
4) COc1cc(C2C(C#N)=C(N)N(c3sc4c(c3C#N)CCCC4)C3=C2C(=O)CC(C)(C)C3)cc(OC)c1OC (stereo not given) : > 92.5 µM (inactive)
5) CCC(=O)C(CCN1CCOCC1)(c1ccccc1)c1ccccc1 : 12 µM (inactive)

----------
EXPERIMENTAL_TARGET: Alkaline phosphatase, tissue-nonspecific isozyme (Homo sapiens, UniProt P05186)
Sequence (P05186 whole entry): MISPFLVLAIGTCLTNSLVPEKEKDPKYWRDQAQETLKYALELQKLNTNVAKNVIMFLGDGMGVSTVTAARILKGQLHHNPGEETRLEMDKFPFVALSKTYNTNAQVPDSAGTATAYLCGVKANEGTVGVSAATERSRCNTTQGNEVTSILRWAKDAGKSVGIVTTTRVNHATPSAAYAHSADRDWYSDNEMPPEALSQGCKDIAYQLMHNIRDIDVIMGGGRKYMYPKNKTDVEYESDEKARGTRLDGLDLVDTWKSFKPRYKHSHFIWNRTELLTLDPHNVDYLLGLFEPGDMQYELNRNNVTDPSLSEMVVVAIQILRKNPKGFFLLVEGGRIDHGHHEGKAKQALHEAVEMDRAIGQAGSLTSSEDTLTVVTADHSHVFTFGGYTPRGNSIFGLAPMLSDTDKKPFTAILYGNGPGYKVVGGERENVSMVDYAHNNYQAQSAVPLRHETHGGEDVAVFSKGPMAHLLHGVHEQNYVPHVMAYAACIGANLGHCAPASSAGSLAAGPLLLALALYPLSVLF
TEST_SUMMARY: potency against alkaline phosphatase TNAP – biochemical, luminescent, dose response, SAR follow-up (AID 1056)
Calls of active or inactive are those of the source.
Outcome codes: active, inactive

1) Cn1c(NCC(=O)c2ccc(O)c(O)c2)nc2ccccc21 : active
2) c1cncc(-c2cnc3ccccc3c2)c1 : inactive
3) Cn1cnc(-c2cccnc2)c1 : inactive
4) CCCCN1C(=O)/C(=N\Nc2ccccc2)c2ccccc21 : active

----------
TEST_SUMMARY: NIH3T3 cell viability loss – ATP luminescence, mouse fibroblasts, counter-screen, dose response (AID 2010);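 also: cells exposed to compound for about 90 hours before reading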
Assay type: functional, cell-based
Activity calls are given as the source filed them.
Recorded EC50 for the following molecules
MEASURE: EC50

1. COc1ccc(Nc2nc(N3CCCC3)nc3ccccc23)c(OC)c1 : 22.2 µM (active)
2. N#CC1=C(N)Oc2c(c(=O)sc3ccccc23)C1c1cccnc1 (stereo unspecified) : 8.85 µM (active)
3. S=C(NC1CCCCC1)N1CCn2cccc2C1c1cccnc1 (stereo unspecified) : > 60 µM (not active)
4. CN(C)CC(C(=O)c1ccccc1)c1ccccc1 (stereo unspecified) : > 30 µM (not active)
5. OCCNc1c2ccccc2nc2ccccc12 : 7.92 µM (active)
6. O=S1(=O)C=C(Sc2nc3cc(Cl)ccc3o2)c2ccccc21 : 1.58 µM (active)

----------
EXPERIMENTAL_TARGET: High affinity choline transporter 1 (Homo sapiens, UniProt Q9GZV3)
Sequence (Q9GZV3 whole entry): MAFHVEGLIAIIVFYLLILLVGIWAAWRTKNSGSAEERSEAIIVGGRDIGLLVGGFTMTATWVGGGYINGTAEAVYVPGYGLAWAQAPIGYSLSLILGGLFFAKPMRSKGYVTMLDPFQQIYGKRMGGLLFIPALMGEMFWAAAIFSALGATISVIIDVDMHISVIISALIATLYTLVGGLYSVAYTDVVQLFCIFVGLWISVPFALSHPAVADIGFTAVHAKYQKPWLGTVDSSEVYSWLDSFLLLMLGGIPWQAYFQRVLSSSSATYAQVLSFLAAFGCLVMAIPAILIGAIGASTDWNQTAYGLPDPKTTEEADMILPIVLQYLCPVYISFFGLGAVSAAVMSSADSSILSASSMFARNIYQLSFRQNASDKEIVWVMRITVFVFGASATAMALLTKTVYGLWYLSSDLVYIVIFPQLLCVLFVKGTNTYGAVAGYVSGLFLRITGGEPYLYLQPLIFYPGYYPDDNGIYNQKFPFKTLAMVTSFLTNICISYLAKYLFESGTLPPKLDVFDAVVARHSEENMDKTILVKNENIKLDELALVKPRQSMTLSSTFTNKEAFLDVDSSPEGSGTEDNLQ
TEST_SUMMARY: human choline transporter blockers, potency – cell-based, 5-point CRC, membrane potential dye, dose response (AID 504840)
Assay type: functional
The source made the active and inactive calls.
MEASURE: IC50

1) CC1CCN(CCNC(=O)C2CCCN(c3ncnc4c3nc3n4CCCCC3)C2)CC1 (stereo not given) : 13.2 µM (active)
2) CC(C)Nc1nc(Cl)nc(N(C#N)CN2C(=O)c3ccccc3C2=O)n1 : 1.58 µM (active)
3) CCCCCn1c(CN2CCCCC2C)nc2c1c(=O)n(C)c(=O)n2C (stereo not given) : 13.2 µM (active)
4) O=C(NCCCn1ccnc1)/C(=C\c1ccc(Br)cc1)NC(=O)c1ccccc1 : 15.1 µM (active)
5) CC1CCCCC1NC(=O)C1CCCN(S(=O)(=O)c2ccc(-n3cnnn3)cc2)C1 (stereo not given) : 5.75 µM (active)

----------
Recorded IC50 for the following compounds
EXPERIMENTAL_TARGET: Fatty acid synthase (Homo sapiens, UniProt P49327)
Sequence (P49327 whole entry): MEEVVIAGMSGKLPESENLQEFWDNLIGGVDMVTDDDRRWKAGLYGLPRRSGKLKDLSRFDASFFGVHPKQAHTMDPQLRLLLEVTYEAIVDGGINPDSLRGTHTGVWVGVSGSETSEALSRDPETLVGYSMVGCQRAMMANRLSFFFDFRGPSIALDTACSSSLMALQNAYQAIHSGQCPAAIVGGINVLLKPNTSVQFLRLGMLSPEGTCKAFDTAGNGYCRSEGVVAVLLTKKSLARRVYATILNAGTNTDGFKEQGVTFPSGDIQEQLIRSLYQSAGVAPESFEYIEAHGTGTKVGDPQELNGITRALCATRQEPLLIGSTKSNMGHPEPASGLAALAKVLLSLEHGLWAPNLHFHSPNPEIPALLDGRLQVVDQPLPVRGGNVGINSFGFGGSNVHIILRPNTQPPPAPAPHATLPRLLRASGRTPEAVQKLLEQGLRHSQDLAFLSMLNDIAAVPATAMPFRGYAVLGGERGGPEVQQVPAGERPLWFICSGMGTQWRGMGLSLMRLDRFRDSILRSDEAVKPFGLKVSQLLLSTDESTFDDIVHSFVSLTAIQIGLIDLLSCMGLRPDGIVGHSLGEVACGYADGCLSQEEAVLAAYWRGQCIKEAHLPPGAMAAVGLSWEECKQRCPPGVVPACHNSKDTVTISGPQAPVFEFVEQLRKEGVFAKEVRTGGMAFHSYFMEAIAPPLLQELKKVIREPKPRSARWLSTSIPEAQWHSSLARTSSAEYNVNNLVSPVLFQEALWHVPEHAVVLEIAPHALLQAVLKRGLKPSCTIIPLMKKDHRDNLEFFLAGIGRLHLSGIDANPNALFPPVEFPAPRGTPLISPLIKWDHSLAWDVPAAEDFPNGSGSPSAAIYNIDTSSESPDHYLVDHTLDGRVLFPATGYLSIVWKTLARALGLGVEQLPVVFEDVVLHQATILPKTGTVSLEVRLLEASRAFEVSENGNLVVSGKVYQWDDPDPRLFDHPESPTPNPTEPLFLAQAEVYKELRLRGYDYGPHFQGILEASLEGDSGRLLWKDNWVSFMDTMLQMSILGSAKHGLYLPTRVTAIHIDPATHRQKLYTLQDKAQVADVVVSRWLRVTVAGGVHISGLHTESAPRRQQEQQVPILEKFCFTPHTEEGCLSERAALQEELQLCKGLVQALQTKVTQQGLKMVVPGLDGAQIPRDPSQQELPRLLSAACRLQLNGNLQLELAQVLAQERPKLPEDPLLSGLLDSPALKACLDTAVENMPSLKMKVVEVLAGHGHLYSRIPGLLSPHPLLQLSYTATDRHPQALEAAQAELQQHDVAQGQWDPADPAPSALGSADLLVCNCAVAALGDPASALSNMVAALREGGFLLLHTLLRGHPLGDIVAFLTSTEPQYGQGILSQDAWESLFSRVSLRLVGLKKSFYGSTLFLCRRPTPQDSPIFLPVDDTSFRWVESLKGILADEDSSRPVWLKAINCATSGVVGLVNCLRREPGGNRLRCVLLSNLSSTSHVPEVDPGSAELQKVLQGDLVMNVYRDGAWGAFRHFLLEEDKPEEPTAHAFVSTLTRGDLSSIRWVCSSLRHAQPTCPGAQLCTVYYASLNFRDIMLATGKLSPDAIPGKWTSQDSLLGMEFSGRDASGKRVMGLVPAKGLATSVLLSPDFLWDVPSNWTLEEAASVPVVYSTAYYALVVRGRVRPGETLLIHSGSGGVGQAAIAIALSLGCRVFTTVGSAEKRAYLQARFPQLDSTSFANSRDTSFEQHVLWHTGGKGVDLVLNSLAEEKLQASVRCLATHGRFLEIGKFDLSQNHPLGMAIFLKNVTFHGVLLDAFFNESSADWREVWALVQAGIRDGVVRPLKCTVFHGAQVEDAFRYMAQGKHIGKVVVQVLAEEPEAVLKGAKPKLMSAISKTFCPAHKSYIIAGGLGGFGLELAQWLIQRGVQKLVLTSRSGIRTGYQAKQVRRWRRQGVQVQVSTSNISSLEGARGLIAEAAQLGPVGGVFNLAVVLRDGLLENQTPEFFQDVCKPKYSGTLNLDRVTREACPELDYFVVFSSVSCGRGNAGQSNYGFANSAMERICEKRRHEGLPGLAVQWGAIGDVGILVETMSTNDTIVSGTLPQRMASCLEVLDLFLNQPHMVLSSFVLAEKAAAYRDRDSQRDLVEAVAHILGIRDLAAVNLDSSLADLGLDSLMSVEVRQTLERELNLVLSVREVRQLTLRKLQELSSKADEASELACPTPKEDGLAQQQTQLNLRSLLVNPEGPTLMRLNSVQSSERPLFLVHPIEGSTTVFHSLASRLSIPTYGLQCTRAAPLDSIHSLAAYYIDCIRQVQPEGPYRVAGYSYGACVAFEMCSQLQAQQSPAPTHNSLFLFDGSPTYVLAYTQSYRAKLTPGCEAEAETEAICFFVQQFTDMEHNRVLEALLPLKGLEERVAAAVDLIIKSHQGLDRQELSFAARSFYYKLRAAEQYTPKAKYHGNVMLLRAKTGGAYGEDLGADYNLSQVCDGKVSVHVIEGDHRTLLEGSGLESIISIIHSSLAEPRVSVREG
TEST_SUMMARY: inhibition of human FAS-TE enzyme activity – biochemical, kinetic fluorescence intensity, dose response (AID 624326);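 also: rate of fluorescence rise from hydrolysis of a fluorogenic O-methyl fluorescein ester substrate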
Assay type: functional
The source made the active and inactive calls.
MEASURE: IC50

1. C=CCn1c(SCc2cc([N+](=O)[O-])cc3c2OCOC3)nc2cc(C(=O)O)ccc2c1=O : 1.6 µM (active)
2. O=C(CC(C(=O)O)c1ccc(Cl)cc1)c1ccc(Cl)c(Cl)c1 (stereo unspecified) : 4.21 µM (active)
3. C=CCNC(=O)/C(=C\c1ccc(OC)cc1)NC(=O)c1ccc([N+](=O)[O-])cc1 : 2.21 µM (active)
4. COc1ccc(C(=O)NC(CC(=O)O)c2cc([N+](=O)[O-])ccc2Cl)c(SC)c1 (stereo unspecified) : 8.79 µM (active)
5. O=[N+]([O-])c1ccc(Cl)c(S(=O)(=O)Nc2cccc(-c3ccc(N4CCCC4)nn3)c2)c1 : 7.65 µM (active)
6. CC(C)(C)OC(=O)NCCCC[C@H](NC(=O)c1[nH]cnc1C(=O)NC1CCN(C(=O)OC(C)(C)C)CC1)C(=O)OC(C)(C)C : 1.6 µM (active)

----------
TEST_SUMMARY: cells
Assay type: functional
Activity calls are given as the source filed them.
Recorded IC50 for the following molecules
MEASURE: IC50

1. O=S1(=O)C=C(Sc2nc3cc(Cl)ccc3o2)c2ccccc21 : 1.57 µM (active)
2. Cc1ccc(S(=O)(=O)Nc2cccc3ncccc23)s1 : 2.01 µM (active)
3. CN(C)CC(C(=O)c1ccccc1)c1ccccc1 (stereo not drawn) : 4.64 µM (active)

Each recorded value in this set is attributed to ChEMBL document CHEMBL1201862.
